- Tested on: HARA
- test: relative viability (nuclei count vs DMSO), 5 days (fraction); higher = more cells survive
- appliedConditions: first compound 0.03162 µM
Exercise: for every item that follows, state its recorded relative viability.
Answers are plain numbers.

* Cc1cn(-c2cc(NC(=O)c3ccc(C)c(Nc4nccc(-c5cccnc5)n4)c3)cc(C(F)(F)F)c2)cn1 [Nilotinib] + Cc1nc(NC(=O)N2CCC[C@H]2C(N)=O)sc1-c1ccnc(C(C)(C)C(F)(F)F)c1 [Alpelisib] (partner 2 µM) | 0.551
* Cc1cn(-c2cc(NC(=O)c3ccc(C)c(Nc4nccc(-c5cccnc5)n4)c3)cc(C(F)(F)F)c2)cn1 [Nilotinib] + Cc1cc(Nc2cc(N3CCN(C)CC3)nc(Sc3ccc(NC(=O)C4CC4)cc3)n2)n[nH]1 [Tozasertib] (partner 0.1 µM) | 0.0999
* Cc1cn(-c2cc(NC(=O)c3ccc(C)c(Nc4nccc(-c5cccnc5)n4)c3)cc(C(F)(F)F)c2)cn1 [Nilotinib] + NC(=O)Nc1cc(-c2cccc(F)c2)sc1C(=O)N[C@H]1CCCNC1 [AZD7762] (partner 0.2 µM) | 0.197

I need relative viability for every entry listed below, if you could help.
1. Cc1cn(-c2cc(NC(=O)c3ccc(C)c(Nc4nccc(-c5cccnc5)n4)c3)cc(C(F)(F)F)c2)cn1 [Nilotinib] + CC1(C)CCC(c2ccc(Cl)cc2)=C(CN2CCN(c3ccc(C(=O)NS(=O)(=O)c4ccc(N[C@H](CCN5CCOCC5)CSc5ccccc5)c(S(=O)(=O)C(F)(F)F)c4)cc3)CC2)C1 [Navitoclax] (partner 0.5 µM)
2. Cc1cn(-c2cc(NC(=O)c3ccc(C)c(Nc4nccc(-c5cccnc5)n4)c3)cc(C(F)(F)F)c2)cn1 [Nilotinib] + CS(=O)(=O)N1CCN(Cc2cc3nc(-c4cccc5[nH]ncc45)nc(N4CCOCC4)c3s2)CC1 [Pictilisib] (partner 1 µM)

-- reply
1: 1.06; 2: 0.197

###

Exercise: for every item that follows, state its recorded relative viability.
- Test system: NCI-H1993
- test: relative viability (nuclei count vs DMSO), 5 days (fraction); higher = more cells survive
- appliedConditions: first compound 2.53 µM
One number for each entry.

Some entries whose results are on file:
• Nc1cccc2c1CN(C1CCC(=O)NC1=O)C2=O (stereo not given) [Lenalidomide] + Nc1ncn([C@H]2C[C@H](O)[C@@H](CO)O2)c(=O)n1 [Decitabine] (partner 2 µM) = 0.529
• Nc1cccc2c1CN(C1CCC(=O)NC1=O)C2=O (stereo not given) [Lenalidomide] + CC1(C)CCC(c2ccc(Cl)cc2)=C(CN2CCN(c3ccc(C(=O)NS(=O)(=O)c4ccc(N[C@H](CCN5CCOCC5)CSc5ccccc5)c(S(=O)(=O)C(F)(F)F)c4)cc3)CC2)C1 [Navitoclax] (partner 0.5 µM) = 0.88
• Nc1cccc2c1CN(C1CCC(=O)NC1=O)C2=O (stereo not given) [Lenalidomide] + Cc1nc(NC(=O)N2CCC[C@H]2C(N)=O)sc1-c1ccnc(C(C)(C)C(F)(F)F)c1 [Alpelisib] (partner 2 µM) = 0.683
• Nc1cccc2c1CN(C1CCC(=O)NC1=O)C2=O (stereo not given) [Lenalidomide] + COc1cc2c(Oc3ccc(NC(=O)C4(C(=O)Nc5ccc(F)cc5)CC4)cc3F)ccnc2cc1OCCCN1CCOCC1 [Foretinib] (partner 0.25 µM) = 0.775

Now look at this entry.
-- ask Which relative viability reading was recorded for the compound Nc1cccc2c1CN(C1CCC(=O)NC1=O)C2=O (stereo not given) [Lenalidomide] + N=C(N)NC(=N)NCCc1ccccc1 [Phenformin] (partner 250 µM) ?
-- reply 0.551

###

Exercise: for every item that follows, state its recorded relative viability.
- System: H3255
- test: relative viability (nuclei count vs DMSO), 5 days (fraction); higher = more cells survive
- appliedConditions: first compound 0.001 µM
One number for each entry.

Some entries whose results are on file:
• Cc1cn(-c2cc(NC(=O)c3ccc(C)c(Nc4nccc(-c5cccnc5)n4)c3)cc(C(F)(F)F)c2)cn1 [Nilotinib] + O=C(CCCCCCC(=O)Nc1ccccc1)NO [Vorinostat] (partner 1 µM) = 0.743
• Cc1cn(-c2cc(NC(=O)c3ccc(C)c(Nc4nccc(-c5cccnc5)n4)c3)cc(C(F)(F)F)c2)cn1 [Nilotinib] + N=C(N)NC(=N)NCCc1ccccc1 [Phenformin] (partner 250 µM) = 0.382
• Cc1cn(-c2cc(NC(=O)c3ccc(C)c(Nc4nccc(-c5cccnc5)n4)c3)cc(C(F)(F)F)c2)cn1 [Nilotinib] + C[C@@H](Oc1cc(-c2cnn(C3CCNCC3)c2)cnc1N)c1c(Cl)ccc(F)c1Cl [Crizotinib] (partner 1 µM) = 0.773
• Cc1cn(-c2cc(NC(=O)c3ccc(C)c(Nc4nccc(-c5cccnc5)n4)c3)cc(C(F)(F)F)c2)cn1 [Nilotinib] + C[C@]1(O)C[C@@H](c2nc(-c3ccc4ccc(-c5ccccc5)nc4c3)c3c(N)nccn32)C1 [Linsitinib] (partner 1 µM) = 0.817
• Cc1cn(-c2cc(NC(=O)c3ccc(C)c(Nc4nccc(-c5cccnc5)n4)c3)cc(C(F)(F)F)c2)cn1 [Nilotinib] + CS(=O)(=O)N1CCN(Cc2cc3nc(-c4cccc5[nH]ncc45)nc(N4CCOCC4)c3s2)CC1 [Pictilisib] (partner 1 µM) = 0.44

-- ask Which relative viability reading was recorded for the molecule Cc1cn(-c2cc(NC(=O)c3ccc(C)c(Nc4nccc(-c5cccnc5)n4)c3)cc(C(F)(F)F)c2)cn1 [Nilotinib] + CC(=O)Nc1cccc(-n2c(=O)n(C3CC3)c(=O)c3c(Nc4ccc(I)cc4F)n(C)c(=O)c(C)c32)c1 [Trametinib] (partner 0.02 µM) ?
-- reply 0.617

###

- Tested on: EKVX
- test: relative viability (nuclei count vs DMSO), 5 days (fraction); higher = more cells survive
- appliedConditions: first compound 0.1 µM
Exercise: for every item that follows, state its recorded relative viability.
One number for each entry.

Some entries whose results are on file:
- Cc1cn(-c2cc(NC(=O)c3ccc(C)c(Nc4nccc(-c5cccnc5)n4)c3)cc(C(F)(F)F)c2)cn1 [Nilotinib] + O=C(CCCCCCC(=O)Nc1ccccc1)NO [Vorinostat] (partner 1 µM): 0.718
- Cc1cn(-c2cc(NC(=O)c3ccc(C)c(Nc4nccc(-c5cccnc5)n4)c3)cc(C(F)(F)F)c2)cn1 [Nilotinib] + CC(=O)c1c(C)c2cnc(Nc3ccc(N4CCNCC4)cn3)nc2n(C2CCCC2)c1=O [Palbociclib] (partner 0.5 µM): 0.62
- Cc1cn(-c2cc(NC(=O)c3ccc(C)c(Nc4nccc(-c5cccnc5)n4)c3)cc(C(F)(F)F)c2)cn1 [Nilotinib] + Cc1nc(Nc2ncc(C(=O)Nc3c(C)cccc3Cl)s2)cc(N2CCN(CCO)CC2)n1 [Dasatinib] (partner 0.075 µM): 0.432

Now look at this entry.
-- ask Which relative viability reading was recorded for the compound Cc1cn(-c2cc(NC(=O)c3ccc(C)c(Nc4nccc(-c5cccnc5)n4)c3)cc(C(F)(F)F)c2)cn1 [Nilotinib] + Nc1ncn([C@H]2C[C@H](O)[C@@H](CO)O2)c(=O)n1 [Decitabine] (partner 2 µM) ?
-- reply 0.648

###

Exercise: for every item that follows, state its recorded relative viability.
- Test system: NCI-H1755
- test: relative viability (nuclei count vs DMSO), 5 days (fraction); higher = more cells survive
- appliedConditions: first compound 0.003162 µM
One number for each entry.

- Cc1cn(-c2cc(NC(=O)c3ccc(C)c(Nc4nccc(-c5cccnc5)n4)c3)cc(C(F)(F)F)c2)cn1 [Nilotinib] + CC1(C)CCC(c2ccc(Cl)cc2)=C(CN2CCN(c3ccc(C(=O)NS(=O)(=O)c4ccc(N[C@H](CCN5CCOCC5)CSc5ccccc5)c(S(=O)(=O)C(F)(F)F)c4)cc3)CC2)C1 [Navitoclax] (partner 0.5 µM): 1.1

Now look at this entry.
-- ask Which relative viability reading was recorded for the compound Cc1cn(-c2cc(NC(=O)c3ccc(C)c(Nc4nccc(-c5cccnc5)n4)c3)cc(C(F)(F)F)c2)cn1 [Nilotinib] + CC(=O)Nc1cccc(-n2c(=O)n(C3CC3)c(=O)c3c(Nc4ccc(I)cc4F)n(C)c(=O)c(C)c32)c1 [Trametinib] (partner 0.02 µM) ?
-- reply 0.806

###

- System: NCI-H2347
- test: relative viability (nuclei count vs DMSO), 5 days (fraction); higher = more cells survive
- appliedConditions: first compound 0.253 µM
Each record is given met if its reported relative viability is strictly below 0.4. Records at or above 0.4 are given not met.

- Nc1cccc2c1CN(C1CCC(=O)NC1=O)C2=O (stereo not given) [Lenalidomide] + CC(=O)c1c(C)c2cnc(Nc3ccc(N4CCNCC4)cn3)nc2n(C2CCCC2)c1=O [Palbociclib] (partner 0.5 µM): not met
- Nc1cccc2c1CN(C1CCC(=O)NC1=O)C2=O (stereo not given) [Lenalidomide] + CC1(C)CCC(c2ccc(Cl)cc2)=C(CN2CCN(c3ccc(C(=O)NS(=O)(=O)c4ccc(N[C@H](CCN5CCOCC5)CSc5ccccc5)c(S(=O)(=O)C(F)(F)F)c4)cc3)CC2)C1 [Navitoclax] (partner 0.5 µM): not met
- Nc1cccc2c1CN(C1CCC(=O)NC1=O)C2=O (stereo not given) [Lenalidomide] + COc1cccc2cc(-c3nc([C@H]4CC[C@H](C(=O)O)CC4)n4ncnc(N)c34)[nH]c12 [OSI-027] (partner 0.5 µM): not met

Now for another entry.
-- ask Is 0.4 strictly greater than the molecule's reported relative viability? molecule: Nc1cccc2c1CN(C1CCC(=O)NC1=O)C2=O (stereo not given) [Lenalidomide] + Cc1nc(Nc2ncc(C(=O)Nc3c(C)cccc3Cl)s2)cc(N2CCN(CCO)CC2)n1 [Dasatinib] (partner 0.075 µM)
-- reply met
